System Tested: HNF4alpha8 (COS-7 nuclear extract) (Homo sapiens, UniProt P41235-5 1-452)
Sequence: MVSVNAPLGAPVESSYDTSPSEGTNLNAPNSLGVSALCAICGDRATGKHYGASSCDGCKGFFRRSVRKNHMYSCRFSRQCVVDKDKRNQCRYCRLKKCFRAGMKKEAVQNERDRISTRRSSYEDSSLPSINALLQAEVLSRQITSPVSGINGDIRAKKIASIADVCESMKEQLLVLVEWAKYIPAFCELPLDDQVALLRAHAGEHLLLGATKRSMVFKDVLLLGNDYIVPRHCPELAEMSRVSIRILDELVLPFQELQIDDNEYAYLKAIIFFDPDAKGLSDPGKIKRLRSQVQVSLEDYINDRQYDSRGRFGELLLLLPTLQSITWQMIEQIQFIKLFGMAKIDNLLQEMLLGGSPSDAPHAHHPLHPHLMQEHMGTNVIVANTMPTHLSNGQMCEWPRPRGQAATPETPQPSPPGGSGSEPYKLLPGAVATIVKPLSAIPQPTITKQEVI
Assay Comment: protein-binding microarray; COS-7 nuclear extract on double-stranded Agilent 4x180k PBM; binding buffer, salt, pH and temperature not given in the material; high values mean tight binding
Experimental Conditions: chain copies: 2; label: 3' end of strand 1 on the slide; dsDNA, one strand shown
Whole data set: some 18,000 sequences, median “log2 normalized intensity” near 0.36, cut for the highest 2% near 7.3. Only a selection was taken, and the highest values are over-represented in it overall.
Observed Property: binding signal (log2 normalized intensity)
The reply should contain only the number, in log2 normalized intensity.

Problem: Fill in the blank: the reported binding signal of ACTACATTTCCAAGACCTCTTTGCGGATAGGCCTAGGGAGATTAGAGTATCGGTCGA is ____.
Result: -0.337

Problem: Same read-out for GGTGAGTCTTTGCCCCTGGACTTTGAATTTGCCTAGGGAGATTAGAGTATCGGTCGA ?
Result: 5.75

Problem: Same read-out for GCTGACCTTTGGTCTAAACCTACTTAGATCGCCTAGGGAGATTAGAGTATCGGTCGA ?
Result: 4.73

Problem: Same read-out for CAAATAAACCTTTGACCAATTGACCCTATCGCCTAGGGAGATTAGAGTATCGGTCGA ?
Result: 4.69

Problem: Same read-out for CTGAAGAATTTGGACTTTGCACTAAAAGCCGCCTAGGGAGATTAGAGTATCGGTCGA ?
Result: 7.57

Problem: Same read-out for GTCAAAAGGTGTATGTGGACTTTCAACTGCGCCTAGGGAGATTAGAGTATCGGTCGA ?
Result: 6.13

Problem: Same read-out for GACTCATCTCCAAACGAGACTTTGGACTTTGCCTAGGGAGATTAGAGTATCGGTCGA ?
Result: 9.58

Problem: Same read-out for GCTCTCCGTGGACTTTGCCCCCTACAGTTTGCCTAGGGAGATTAGAGTATCGGTCGA ?
Result: 10.5

Problem: Same read-out for CAGGACTGCGTAACTTACAGTGCACTTTGAGCCTAGGGAGATTAGAGTATCGGTCGA ?
Result: 5.6

Problem: Same read-out for TGGACTTTGCACTAAAAGCCATGAGAAGGTGCCTAGGGAGATTAGAGTATCGGTCGA ?
Result: 5.41

Problem: Same read-out for CTCCAAACATCTTTGGTATGGACTGATATTGCCTAGGGAGATTAGAGTATCGGTCGA ?
Result: 1.85

Problem: Same read-out for TTAATACTTTGGAACTCAGTTAATGTACAGGCCTAGGGAGATTAGAGTATCGGTCGA ?
Result: 1.59

Problem: Same read-out for TTTTCCACCCTCCCCTCCCCCTCCTCCCCTGCCTAGGGAGATTAGAGTATCGGTCGA ?
Result: 7.22

Problem: Same read-out for TCTTCCTTTCTATCAGCTCTCCGTGGACTTGCCTAGGGAGATTAGAGTATCGGTCGA ?
Result: 3.52

Problem: Same read-out for CTCATGTGGTCCTAAAATTGACCTTTGATCGCCTAGGGAGATTAGAGTATCGGTCGA ?
Result: 11

Problem: Same read-out for GGAGACCTGAAACTAGACCAAGAAGACTTTGCCTAGGGAGATTAGAGTATCGGTCGA ?
Result: -0.267

Problem: Same read-out for GAGCAGCACTTTTGGAGTTTGACCTGGAGCGCCTAGGGAGATTAGAGTATCGGTCGA ?
Result: 6.24

Problem: Same read-out for TTCCTGAAGATCGCAGACTTTGGACTCTGCGCCTAGGGAGATTAGAGTATCGGTCGA ?
Result: 8.57

Problem: Same read-out for TCTTTGCCCTCTTGGTATCAGCTTTGAGACGCCTAGGGAGATTAGAGTATCGGTCGA ?
Result: 1.91

Problem: Same read-out for TGCCTTTGATCAGGGACCTTTGTTCCTTTAGCCTAGGGAGATTAGAGTATCGGTCGA ?
Result: 5

Problem: Same read-out for GAATTTGGACTTTGCACTAAAAGCCATGAGGCCTAGGGAGATTAGAGTATCGGTCGA ?
Result: 6.28

Problem: Same read-out for CCAGCTAGAAGCAGTGGGACAAAGGTCACAGCCTAGGGAGATTAGAGTATCGGTCGA ?
Result: 6.82

Problem: Same read-out for TTGAATTCCTTCTTCTTCTGGGGACTTCGGGCCTAGGGAGATTAGAGTATCGGTCGA ?
Result: 2.16

Problem: Same read-out for CTGCGTAACTTACAGTGCACTTTGACCGCTGCCTAGGGAGATTAGAGTATCGGTCGA ?
Result: 7.74

Problem: Same read-out for TCCTTTTCTTTCACATACAAAATTTACTTTGCCTAGGGAGATTAGAGTATCGGTCGA ?
Result: 1.75

Problem: Same read-out for GGGGCAGAGTGAGCAGCACTTTTGGAGTTTGCCTAGGGAGATTAGAGTATCGGTCGA ?
Result: 2.17

Problem: Same read-out for TTTGGCCCCCAGAGCCCCGTGTCTCCCTACGCCTAGGGAGATTAGAGTATCGGTCGA ?
Result: 4.89

Problem: Same read-out for CACAAATTGGAGAGCATCTTGGACTTGGGAGCCTAGGGAGATTAGAGTATCGGTCGA ?
Result: 3.16

Problem: Same read-out for AAAAAATGGGCAAAGGACAATAATGAATAAGCCTAGGGAGATTAGAGTATCGGTCGA ?
Result: -0.651

Problem: Same read-out for TGTGGTAATAAGTTGGTGGACGCTGGGGAAGCCTAGGGAGATTAGAGTATCGGTCGA ?
Result: 0.488

Problem: Same read-out for CCTCAGTGTGGGACTTTGGTCTGCTGAGTCGCCTAGGGAGATTAGAGTATCGGTCGA ?
Result: 3.95

Problem: Same read-out for GCAGCTCTTTACAAAGCCCATGCTGGACCCGCCTAGGGAGATTAGAGTATCGGTCGA ?
Result: 4.69
